Test: Mouse PK test: plasma concentration after intravenous or oral administration
Assay type: in vivo, mice (C57BL/6J)
Settings: male, C57BL/6J, in vivo, po, 50 mg/kg
Starred links: 1 amine or outer side, 2 acyl side, 3 side chain; linkers in the order of their positions; H or OH if unused. Non-standard residues stand in square brackets, D forms with d. Residues, ends and D or L forms follow the SMILES beside them. *: point of attachment. NMedβ3hAla = C[C@H](CC(=O)[*:2])N(C)[*:1]; NMeF = CN[C@@H](Cc1ccccc1)C(=O)O; NMeI = CC[C@H](C)[C@H](NC)C(=O)O; NMeβAla = CN(CCC(=O)[*:2])[*:1]; NMeL = CN[C@@H](CC(C)C)C(=O)O; Sar = CNCC(=O)O; tBu = CC(C)(C)*
OUTCOME MEASURE: half-life (min)
Give bare numbers, in min.

half-life recorded for this compound, CC[C@H](C)[C@H]1C(=O)N[C@@H](CC(C)C)C(=O)N(C)CC(=O)N(C)[C@@H](CC(C)C)C(=O)N[C@@H](CC(C)C)C(=O)N(C)[C@H](C)CC(=O)N(C)[C@@H](CC(C)C)C(=O)N(C)CCC(=O)N(C)[C@@H](CC(C)C)C(=O)N[C@@H](COC(C)(C)C)C(=O)N(C)[C@@H](Cc2ccccc2)C(=O)N(C)CCC(=O)N(C)[C@@H](Cc2ccccc2)C(=O)N1C [pd144] (cyclo(L[Sar][NMeL]L[NMedβ3hAla][NMeL][NMeβAla][NMeL]S(tBu)[NMeF][NMeβAla][NMeF][NMeI])) , is 582

====

Task for the reader: assign each of the following molecules its reported Mouse Hepatic Microsome CLh,int NADPH(-).
Assay: Metabolic stability test: liver microsomal stability assay
Assay type: in vitro ADME, mouse
Settings: mouse liver microsomes 0.5 mg protein/mL, compound 1 µM, absence of NADPH
Positions of bridges follow the written chain, without caps; N, C: chain ends. Non-standard residues stand in square brackets, D forms with d. Residues, ends and D or L forms follow the SMILES beside them. *: point of attachment. NMeF = CN[C@@H](Cc1ccccc1)C(=O)O; NMeI = CC[C@H](C)[C@H](NC)C(=O)O; NMeD = CN[C@@H](CC(=O)O)C(=O)O; NMeL = CN[C@@H](CC(C)C)C(=O)O; NMeV = CN[C@H](C(=O)O)C(C)C; d(β3hA) = C[C@@H](N)CC(=O)O; NMeAbu = CC[C@H](NC)C(=O)O; NMeA = CN[C@@H](C)C(=O)O; Piperidide = C1CCN(*)CC1; Abu = CC[C@H](N)C(=O)O; Sar = CNCC(=O)O; tBu = CC(C)(C)*
Numbers only, in µL/min/mg Protein.

Use the examples below as a reference point.
- MOLECULE: "CC[C@H]1C(=O)N(C)[C@@H](C)C(=O)N[C@@H](CC(C)C)C(=O)N(C)[C@@H](C(C)C)C(=O)N[C@H](C)CC(=O)N[C@H](C(C)C)C(=O)N(C)[C@@H](CC(C)C)C(=O)N[C@@H](CC(C)C)C(=O)N(C)[C@@H](C(C)C)C(=O)N(C)[C@@H](CC(C)C)C(=O)N(C)CC(=O)N[C@@H]([C@@H](C)O)C(=O)N(C)[C@@H](Cc2ccccc2)C(=O)N[C@@H](COC(C)(C)C)C(=O)N1C [pd049] (cyclo(L[NMeV][NMeL][Sar]T[NMeF]S(tBu)[NMeAbu][NMeA]L[NMeV][d(β3hA)][dV][NMeL]))"
  Mouse Hepatic Microsome CLh,int NADPH(-), µL/min/mg Protein: 29.1
- MOLECULE: "CC(C)C[C@@H]1NC(=O)[C@@H]2CCCN2C(=O)[C@H](C(C)C)N(C)C(=O)[C@H](C)NC(=O)[C@H](CC(C)C)N(C)C(=O)[C@@H](C(C)C)NC(=O)C[C@@H](C(=O)N2CCCCC2)NC(=O)[C@H](C(C)C)N(C)C(=O)[C@H](C)NC(=O)[C@H](CC(C)C)N(C)C(=O)[C@H](C(C)C)NC(=O)[C@H](COC(C)(C)C)NC(=O)[C@H](CC(C)C)N(C)C(=O)[C@H](Cc2ccccc2)N(C)C1=O [pd014] ([dV][NMeL]A[NMeV]PL[NMeF][NMeL]S(tBu)V[NMeL]A[NMeV]D-Piperidide; lactam N-14)"
  Mouse Hepatic Microsome CLh,int NADPH(-), µL/min/mg Protein: 33.0
- MOLECULE: "CC[C@@H]1NC(=O)[C@H](CC(C)C)N(C)C(=O)[C@H]([C@@H](C)O)NC(=O)[C@H](C(C)C)N(C)C(=O)[C@H](Cc2ccccc2)N(C)C(=O)[C@@H](C(C)C)NC(=O)C[C@@H](C(=O)N2CCCCC2)N(C)C(=O)CN(C)C(=O)[C@H](Cc2ccccc2)N(C)C(=O)[C@H](C)N(C)C(=O)[C@H](COC(C)(C)C)NC(=O)[C@H](CC(C)C)N(C)C(=O)CN(C)C1=O [pd162] ([dV][NMeF][NMeV]T[NMeL][Abu][Sar][NMeL]S(tBu)[NMeA][NMeF][Sar][NMeD]-Piperidide; lactam N-13)"
  Mouse Hepatic Microsome CLh,int NADPH(-), µL/min/mg Protein: 16.3

The recorded Mouse Hepatic Microsome CLh,int NADPH(-) for CC[C@H](C)[C@@H]1NC(=O)[C@@H]2CCCN2C(=O)[C@H](CC(C)C)N(C)C(=O)[C@H](CC(C)C)NC(=O)[C@H]([C@@H](C)CC)N(C)C(=O)[C@H]([C@@H](C)O)NC(=O)[C@H](Cc2ccccc2)N(C)C(=O)[C@H](CC)N(C)C(=O)[C@H](Cc2ccccc2)N(C)C(=O)[C@H](C(C)C)NC(=O)[C@H](CC(C)C)N(C)C(=O)[C@H](C)N(C)C(=O)C[C@@H](C(=O)N2CCCCC2)NC(=O)[C@H](C(C)C)N(C)C1=O [pd043] ([NMeA][NMeL]V[NMeF][NMeAbu][NMeF]T[NMeI]L[NMeL]PI[NMeV]D-Piperidide; lactam N-14) is 34.8

====

Assay: Metabolic stability test: liver microsomal stability assay
Type: in vitro ADME, mouse
Conditions: mouse liver microsomes 0.5 mg protein/mL, compound 1 µM, absence of NADPH
Starred links: 1 amine or outer side, 2 acyl side, 3 side chain; linkers in the order of their positions; H or OH if unused. Positions of bridges follow the written chain, without caps; N, C: chain ends. Non-standard residues stand in square brackets, D forms with d. Residues, ends and D or L forms follow the SMILES beside them. *: point of attachment. NMeF = CN[C@@H](Cc1ccccc1)C(=O)O; NMeGABA = CN(CCCC(=O)[*:2])[*:1]; NMeI = CC[C@H](C)[C@H](NC)C(=O)O; hPhe = N[C@@H](CCc1ccccc1)C(=O)O; NMeβAla = CN(CCC(=O)[*:2])[*:1]; NMeD = CN[C@@H](CC(=O)O)C(=O)O; NMeL = CN[C@@H](CC(C)C)C(=O)O; NMeV = CN[C@H](C(=O)O)C(C)C; d(β3hA) = C[C@@H](N)CC(=O)O; NMeAbu = CC[C@H](NC)C(=O)O; NMeA = CN[C@@H](C)C(=O)O; Piperidide = C1CCN(*)CC1; dNMeA = CN[C@H](C)C(=O)O; NBuGly = CCCCNCC(=O)O; Sar = CNCC(=O)O; tBu = CC(C)(C)*
OUTCOME MEASURE: Mouse Hepatic Microsome CLh,int NADPH(-)
Answer with the number, then the unit.

Worked cases, answers included:
- COMPOUND: "CCCCN1CC(=O)N[C@@H](COC(C)(C)C)C(=O)N(C)[C@@H](Cc2ccccc2)C(=O)N[C@@H](CC(C)C)C(=O)N(C)[C@@H](C(C)C)C(=O)N[C@H](C(=O)N2CCCCC2)CC(=O)N[C@H](C(C)C)C(=O)N(C)[C@@H](Cc2ccccc2)C(=O)N[C@@H](CC(C)C)C(=O)N(C)[C@@H](C(C)C)C(=O)N(C)[C@@H](CC(C)C)C(=O)N[C@@H]([C@@H](C)O)C(=O)N(C)[C@@H](CC(C)C)C1=O [pd100] ([dV][NMeF]L[NMeV][NMeL]T[NMeL][NBuGly]S(tBu)[NMeF]L[NMeV]D-Piperidide; lactam N-13)"
  Mouse Hepatic Microsome CLh,int NADPH(-): "28.4 µL/min/mg Protein"
- COMPOUND: "CC[C@H](C)[C@H]1C(=O)N[C@@H]([C@@H](C)O)C(=O)N(C)CC(=O)N(C)[C@@H](CC(C)C)C(=O)N[C@@H](CC(C)C)C(=O)N[C@H](C(=O)N2CCCCC2)CC(=O)N(C)[C@@H](C)C(=O)N[C@@H](CC(C)C)C(=O)N(C)[C@@H](CC(C)C)C(=O)N[C@@H](C(C)C)C(=O)N(C)CCC(=O)N(C)[C@@H](Cc2ccccc2)C(=O)N[C@@H](C)C(=O)N(C)[C@@H](Cc2ccccc2)C(=O)N1C [pd037] ([NMeA]L[NMeL]V[NMeβAla][NMeF]A[NMeF][NMeI]T[Sar][NMeL]LD-Piperidide; lactam N-14)"
  Mouse Hepatic Microsome CLh,int NADPH(-): "17.7 µL/min/mg Protein"
- COMPOUND: "CC[C@H](C)[C@@H]1NC(=O)[C@H](C)N(C)C(=O)[C@H]([C@@H](C)O)NC(=O)[C@H](CC(C)C)N(C)C(=O)[C@H](CC)N(C)C(=O)[C@H](Cc2ccccc2)N(C)C(=O)[C@H](C)NC(=O)[C@H](Cc2ccccc2)N(C)C(=O)[C@H](C)N(C)C(=O)[C@H](CC(C)C)N(C)C(=O)[C@H](CC(C)C)NC(=O)CCCN(C)C(=O)C[C@@H](C(=O)N2CCCCC2)NC(=O)[C@H](CC(C)C)N(C)C1=O [pd041] ([NMeGABA]L[NMeL][NMeA][NMeF]A[NMeF][NMeAbu][NMeL]T[NMeA]I[NMeL]D-Piperidide; lactam N-14)"
  Mouse Hepatic Microsome CLh,int NADPH(-): "23.5 µL/min/mg Protein"
- COMPOUND: "CC[C@H](C)[C@@H]1NC(=O)CN(C)C(=O)C[C@@H](C(=O)N2CCCCC2)N(C)C(=O)[C@H](Cc2ccccc2)N(C)C(=O)[C@H](CC(C)C)N(C)C(=O)[C@H]([C@@H](C)O)NC(=O)[C@H](CC(C)C)N(C)C(=O)[C@H](CC(C)C)NC(=O)[C@H](C(C)C)N(C)C(=O)[C@H](C)N(C)C(=O)[C@H](CC(C)C)N(C)C(=O)[C@H](CCc2ccccc2)NC(=O)[C@H](CC(C)C)N(C)C1=O [pd165] ([Sar]I[NMeL][hPhe][NMeL][NMeA][NMeV]L[NMeL]T[NMeL][NMeF][NMeD]-Piperidide; lactam N-13)"
  Mouse Hepatic Microsome CLh,int NADPH(-): "27.2 µL/min/mg Protein"
- COMPOUND: "CC[C@H](C)[C@@H]1NC(=O)[C@H](CC(C)C)N(C)C(=O)[C@H](CC(C)C)NC(=O)[C@H](C)N(C)C(=O)C[C@@H](C(=O)N2CCCCC2)NC(=O)[C@H](CC(C)C)NC(=O)[C@@H]2CCCN2C(=O)[C@H](CC(C)C)N(C)C(=O)[C@H]([C@@H](C)O)NC(=O)[C@H]([C@@H](C)CC)N(C)C(=O)[C@H](Cc2ccccc2)N(C)C(=O)[C@H](C)NC(=O)[C@H](Cc2ccccc2)N(C)C1=O [pd104] ([NMeA]L[NMeL]I[NMeF]A[NMeF][NMeI]T[NMeL]PLD-Piperidide; lactam N-13)"
  Mouse Hepatic Microsome CLh,int NADPH(-): "36.2 µL/min/mg Protein"

I'm hoping you can list Mouse Hepatic Microsome CLh,int NADPH(-) for every compound here, please.
1. CC[C@H](C)[C@@H]1NC(=O)[C@@H]2CCCN2C(=O)[C@H](C(C)C)N(C)C(=O)[C@H](CC(C)C)N(C)C(=O)C[C@@H](C(=O)N2CCCCC2)N(C)C(=O)[C@H](CC(C)C)NC(=O)[C@H](CC(C)C)N(C)C(=O)[C@H](C)NC(=O)[C@@H]2CCCN2C(=O)[C@H]([C@@H](C)O)NC(=O)[C@H](CC(C)C)N(C)C(=O)CN(C)C(=O)[C@H](Cc2ccccc2)N(C)C1=O [pd164] ([NMeL][NMeV]PI[NMeF][Sar][NMeL]TPA[NMeL]L[NMeD]-Piperidide; lactam N-13)
2. CC[C@H](C)[C@H]1C(=O)N[C@@H]([C@@H](C)O)C(=O)N(C)CC(=O)N(C)[C@@H](CC(C)C)C(=O)N[C@@H](CC(C)C)C(=O)N[C@H](C)CC(=O)N(C)[C@@H](C)C(=O)N[C@@H](CC(C)C)C(=O)N(C)[C@@H](C)C(=O)N(C)[C@@H](CC(C)C)C(=O)N[C@@H](COC(C)(C)C)C(=O)N(C)[C@@H](Cc2ccccc2)C(=O)N[C@@H](C(C)C)C(=O)N(C)[C@@H](CC(C)C)C(=O)N1C [pd052] (cyclo(L[NMeA][NMeL]S(tBu)[NMeF]V[NMeL][NMeI]T[Sar][NMeL]L[d(β3hA)][NMeA]))
3. CC[C@H](C)[C@@H]1NC(=O)[C@@H]2CCCN2C(=O)[C@H](C(C)C)N(C)C(=O)[C@@H](C)N(C)C(=O)C[C@@H](C)NC(=O)[C@H](C(C)C)N(C)C(=O)[C@H](Cc2ccccc2)N(C)C(=O)[C@H](COC(C)(C)C)NC(=O)[C@H](CC(C)C)N(C)C(=O)[C@H](C)N(C)C(=O)[C@H](CC(C)C)N(C)C(=O)[C@H]([C@@H](C)O)NC(=O)[C@H](Cc2ccccc2)N(C)C1=O [pd136] (cyclo(I[NMeF]T[NMeL][NMeA][NMeL]S(tBu)[NMeF][NMeV][d(β3hA)][dNMeA][NMeV]P))

10.0 µL/min/mg Protein
32.0 µL/min/mg Protein
28.8 µL/min/mg Protein
